src = patent US20260015358A1

Kindly state pIC50 for each of the entries shown.
target: WRN [UniPro: Q14191 (WRN_HUMAN), N500-C946] (Homo sapiens (Human)); assay: WRN unwinding assay (FORKF DNA, fluorescence); format: biochemical; conditions: Table 14
Sequence (Q14191 500-946): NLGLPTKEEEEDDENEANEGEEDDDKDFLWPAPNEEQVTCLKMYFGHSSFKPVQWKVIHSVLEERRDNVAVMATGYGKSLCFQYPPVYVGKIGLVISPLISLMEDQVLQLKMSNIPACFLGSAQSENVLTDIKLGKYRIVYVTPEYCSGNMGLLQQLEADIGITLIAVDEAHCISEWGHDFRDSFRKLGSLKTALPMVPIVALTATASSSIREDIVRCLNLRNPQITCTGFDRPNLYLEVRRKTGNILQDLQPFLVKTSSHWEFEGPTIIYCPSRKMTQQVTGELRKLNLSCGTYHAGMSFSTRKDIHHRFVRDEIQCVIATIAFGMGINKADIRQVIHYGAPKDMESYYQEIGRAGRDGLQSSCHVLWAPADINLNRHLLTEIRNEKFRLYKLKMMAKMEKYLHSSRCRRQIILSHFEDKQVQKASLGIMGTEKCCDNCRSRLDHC
pIC50: −log10 of the molar value.

Solved cases below.
CCc1c(N2CCN(C(=O)c3n[nH]c(=O)cc3O)CC2)c(=O)n2nc(C3=CCOCC3)nc2n1CC(=O)Nc1ccc(C(F)(F)F)cc1Cl: > 7.00
CCc1c(N2CCN(C(=O)c3cc4ccn(C)c4cc3O)CC2)c(=O)n2nc(C3=CCOCC3)nc2n1CC(=O)Nc1ccc(C(F)(F)F)cc1Cl: > 7.00

Now for another entry.
Query: Recorded pIC50 of `CCc1c(N2CCN(C(=O)c3c[nH]c(=O)[nH]c3=O)CC2)c(=O)n2nc(C3=CCOCC3)nc2n1CC(=O)Nc1ccc(C(F)(F)F)cc1Cl` , please.
Reply: 6.00 to 7.00
